Run description: MALDI-TOF MS of fragments formed in vitro during incubation of 33-mer in mouse plasma
Format: in vitro ADME
Assay context: 33-mer in mouse plasma at 37°C, 5 kDa MWCO filtrate or SDS-PAGE gel slice, sequence assigned by mass match
Ends that are not written are not given here.
Observed property: Sample (filtrate or gel slice range) in which the fragment was found

Some substances with known Sample (filtrate or gel slice range) in which the fragment was found results, for comparison:
INSERT INTO measurements (substance, result) VALUES
  ('YPQPQPF [33-mer fragment assigned by MALDI-TOF MS mass match]', 'Filtrate'),
  ('ELPYPQPEL [33-mer fragment formed in mouse plasma in vitro, MALDI-TOF MS mass match]', 'Filtrate'),
  ('FPQPELPYPQPELPYPQPELPYPQPQPF [33-mer fragment formed in mouse plasma in vitro, MALDI-TOF MS mass match]', '10–12 kDa'),
  ('LQLQPFPQPELPYPQPE [33-mer fragment assigned by MALDI-TOF MS mass match]', '4–6 kDa'),
  ('YPQPELPYPQPQPF [33-mer fragment assigned by MALDI-TOF MS mass match]', 'Filtrate');

Query string: Which Sample (filtrate or gel slice range) in which the fragment was found value is on record for LQLQPFPQPELPYPQPELPYPQPELPYPQPQP ?
Result string: 4–6 kDa

Query string: Let us now turn to LQLQPFPQPELPYPQPELPYPQPELPYPQPQ [33-mer fragment formed in mouse plasma in vitro, MALDI-TOF MS mass match]
Result string: 14–17 kDa

----------
Run description: MALDI-TOF MS of 33-mer fragments in plasma and pancreas after oral administration
Assay context: mice 6–20 weeks, 500–900 μg 33-mer p.o., plasma and pancreas 45–60 min after administration, sequence assigned by mass match
Ends that are not written are not given here.
Observed property: Sample in which the 33-mer fragment was found

Some substances with known Sample in which the 33-mer fragment was found results, for comparison:
INSERT INTO results (substance, result) VALUES
  ('QPFPQPELPYPQPELPYPQPELPYPQPQ', 'Plasma, NOD, C57BL/6'),
  ('YPQPQPF', 'Plasma, NOD'),
  ('QLQPFPQPELP', 'Plasma, NOD'),
  ('QPFPQPELP', 'Plasma, NOD'),
  ('LQLQPFPQPELPYPQPE', 'Plasma, NOD');

Query string: Which Sample in which the 33-mer fragment was found value is on record for FPQPELPY ?
Result string: Plasma, C57BL/6

Query string: Let us now turn to LQLQPFPQPELPYPQPELPYPQPELPYPQPQP
Result string: Plasma, C57BL/6

Query string: Let us now turn to QPFPQPELPYPQPELPYPQPELPYPQPQP
Result string: Plasma, NOD, C57BL/6

----------
Run description: MALDI-TOF MS of fragments formed in vitro during incubation of 33-mer in mouse plasma
Type: in vitro ADME
Assay context: 33-mer in mouse plasma at 37°C, 5 kDa MWCO filtrate or SDS-PAGE gel slice, sequence assigned by mass match
Observed property: Sample (filtrate or gel slice range) in which the fragment was found

Some substances with known Sample (filtrate or gel slice range) in which the fragment was found results, for comparison:
INSERT INTO results (substance, result) VALUES
  ('ELPYPQPELPYPQPELPYPQPQPF [33-mer fragment formed in mouse plasma in vitro, MALDI-TOF MS mass match]', '14–18 kDa'),
  ('QPFPQPELPY [33-mer fragment assigned by MALDI-TOF MS mass match]', 'Filtrate'),
  ('QPFPQPELPYPQPELPYPQPELPYPQPQPF [33-mer fragment formed in mouse plasma in vitro, MALDI-TOF MS mass match]', '14–18 kDa'),
  ('ELPYPQPELPYPQPELPY [33-mer fragment formed in mouse plasma in vitro, MALDI-TOF MS mass match]', 'Filtrate'),
  ('H-LQLQPFPQPELPYPQPELPYPQPELPYPQPQPF-OHY [33-mer, proline-rich 33-mer (p56–88) alpha-gliadin peptide, 98% pure (Schafer-N)]', '4–6 kDa, 6–9 kDa, 14–17 kDa'),
  ('LQLQPFPQPELPYPQPELPYPQPELPYPQP [33-mer fragment formed in mouse plasma in vitro, MALDI-TOF MS mass match]', '14–18 kDa');

Query string: Which Sample (filtrate or gel slice range) in which the fragment was found value is on record for QLQPFPQPELPYPQPELPYPQPELPYPQPQP [33-mer fragment formed in mouse plasma in vitro, MALDI-TOF MS mass match] ?
Result string: 14–17 kDa

Query string: Let us now turn to PFPQPELPYPQPELPYPQPELPYPQPQPF [33-mer fragment formed in mouse plasma in vitro, MALDI-TOF MS mass match]
Result string: 10–12 kDa

Query string: Let us now turn to ELPYPQPELPYPQPEL [33-mer fragment formed in mouse plasma in vitro, MALDI-TOF MS mass match]
Result string: Filtrate

All figures here come from paper PMC5067331.
